- protocolConditions: 303.15 K; 101 kPa; Liquid
readoutLabel: mass density (kg/m3)

| molecule | readoutLabel | numericResult |
| --- | --- | --- |
| CCCCCCCC | mass density | 694.35 |
| CCCCCCO | mass density | 811.56 |
| CCCCCCC(=O)OC [methyl heptanoate] | mass density | 870.73 |
| CCCCC(=O)OC [methyl pentanoate] | mass density | 879.51 |

* * *

- protocolConditions: 293.15 K; 101.33 kPa; Liquid
Numbers after ± are expanded uncertainties.
readoutLabel: viscosity

| molecule | readoutLabel | result |
| --- | --- | --- |
| CCCCCCCC [octane] | viscosity | 0.542 ± 0.007 mPa·s |
| CCCCC(=O)OC [methyl pentanoate] | viscosity | 0.712 ± 0.01 mPa·s |
| CCCCCCO [hexan-1-ol] | viscosity | 5.412 ± 0.059 mPa·s |
| CCCCCCC(=O)OC [methyl heptanoate] | viscosity | 1.112 ± 0.014 mPa·s |
